Below, each of the compounds is paired with its reported composite z-score value.
# SYSTEM NAME: Torsin-1A-interacting protein 1 (Homo sapiens)
# TEST DESCRIPTION: LAP1 binders from COS7 cell lysate, primary screen, small-molecule microarray, 635/667 nm fluorescence (AID 1116)
# MEASUREMENT PARAMETERS: COS7-hLAP1 lysate binding, 635 nm fluorescence, higher = more signal
REPORTED PROPERTY: composite z-score

INSERT INTO measurements (query_smiles, system_name, observed_measurement) VALUES
  ('COC(=O)[C@@]1(Cc2ccc(F)cc2)[C@H]2c3cc(C(=O)N4CCCC4)n(CCc4c[nH]c5cc(F)ccc45)c3C[C@H]2CN1C(=O)c1ccccc1', 'Torsin-1A-interacting protein 1 (Homo sapiens)', -0.291),
  ('COC(=O)C(CC#Cc1ccc2c(c1)[C@]1(C(=O)N2)[C@H](C(=O)N2CCCCCCC2)[C@H]2C(=O)O[C@H](c3ccccc3)[C@H](c3ccccc3)N2[C@@H]1c1ccc(OCCO)cc1)C(=O)OC', 'Torsin-1A-interacting protein 1 (Homo sapiens)', 6.05),
  ('COC(=O)[C@@]1(Cc2ccc(F)cc2)[C@@H]2C(=CC(=O)[C@H]2CC(=O)C(=O)N2CCCC2)CN1C(=O)c1ccccc1', 'Torsin-1A-interacting protein 1 (Homo sapiens)', 1.25);
